# reported CL/F; entries follow
- method summary: Pharmacokinetics assay in BALB/C nude mice after intragastrical administration
- Type: in vivo
- conditions used: female, mouse, plasma, po, 3 mg/kg, read-out: Clearance CL/F (converted)

[
  {
    "molecule": "CC1Cc2c(oc3ccc(-c4cnn(C)c4)cc23)C(c2c(F)cc(/C=C/C(=O)O)cc2F)N1CC(C)(C)F (centres unmarked) [Example 89]",
    "unit of measure": "L/h/kg",
    "CL/F": 6.49
  },
  {
    "molecule": "CC1Cc2c(oc3cccc(F)c23)C(c2c(F)cc(/C=C/C(=O)O)cc2F)N1CC(C)(C)F (centres unmarked) [Example 73]",
    "unit of measure": "L/h/kg",
    "CL/F": 12.6
  },
  {
    "molecule": "C[C@@H]1Cc2cc(-c3cnn(C)c3)ccc2[C@@H](c2c(F)cc(/C=C/C(=O)O)cc2F)N1CC(C)(C)F [Example 57]",
    "unit of measure": "L/h/kg",
    "CL/F": 3.31
  },
  {
    "molecule": "CCn1cc(-c2ccc3c(c2)CC(C)N(CC(C)(C)F)C3c2c(F)cc(/C=C/C(=O)O)cc2F)cn1 (centres unmarked) [Example 20]",
    "unit of measure": "L/h/kg",
    "CL/F": 3.83
  },
  {
    "molecule": "C[C@@H]1Cc2c(oc3ccccc23)[C@@H](c2c(F)cc(/C=C/C(=O)O)cc2F)N1CC(C)(C)F [Example 68]",
    "unit of measure": "L/h/kg",
    "CL/F": 6.32
  },
  {
    "molecule": "C[C@@H]1Cc2cc(-c3cnn(C(F)F)c3)ccc2[C@@H](c2c(F)cc(/C=C/C(=O)O)cc2F)N1CC(C)(C)F [Example 14]",
    "unit of measure": "L/h/kg",
    "CL/F": 1.53
  },
  {
    "molecule": "C[C@@H]1Cc2c(oc3cccc(F)c23)[C@@H](c2c(F)cc(/C=C/C(=O)O)cc2F)N1CC(C)(C)F [Example 74]",
    "unit of measure": "L/h/kg",
    "CL/F": 8.54
  },
  {
    "molecule": "CCn1cc(-c2ccc3c(c2)C[C@@H](C)N(CC(C)(C)F)[C@@H]3c2c(F)cc(/C=C/C(=O)O)cc2F)cn1 [Example 21]",
    "unit of measure": "L/h/kg",
    "CL/F": 4.96
  },
  {
    "molecule": "CCn1cc(-c2ccc3oc4c(c3c2)CC(C)N(CC(C)(C)F)C4c2c(F)cc(/C=C/C(=O)O)cc2F)cn1 (centres unmarked) [Example 76]",
    "unit of measure": "L/h/kg",
    "CL/F": 1.86
  },
  {
    "molecule": "C[C@@H]1Cc2cc3c(cc2[C@@H](c2c(F)cc(/C=C/C(=O)O)cc2F)N1CC(C)(C)F)OCO3 [Example 71]",
    "unit of measure": "L/h/kg",
    "CL/F": 9.45
  },
  {
    "molecule": "Cc1ncc(-c2ccc3c(c2)CC(C)N(CC(C)(C)F)C3c2c(F)cc(/C=C/C(=O)O)cc2F)s1 (centres unmarked) [Example 10]",
    "unit of measure": "L/h/kg",
    "CL/F": 3.24
  }
]
